assay: xn = mol fraction of the nth substance listed; conditions: 288.15 K; 100 kPa; Liquid; Concentric cylinders viscometry; x1 = 0.5999
measured_endpoint: viscosity (mPa·s)

molecule	measurement_unit	viscosity
CCOC(=O)CCC(=O)OCC [diethyl butanedioate] + CC(C)CO	mPa·s	2.546
CCCCCCCC(=O)OCC [ethyl octanoate] + CC(C)CCO	mPa·s	1.856

1: CCOC(=O)CCC(=O)OCC [diethyl butanedioate] + CC(C)CCO
2: CCCCCCCC(=O)OCC [ethyl octanoate] + CC(C)CO
Between item 1 and item 2 , which reported viscosity is smaller? Identify your selection by its label.
2
(2: 1.766 mPa·s, 1: 2.6 mPa·s)
